Values were extracted from paper PMC7436059.

System: human lung cancer cell line (A549)
Experiment: CCK-8 antiproliferative assay, A549
Type: cell-based
Settings: A549, CCK-8, 72 h incubation
pIC50: −log10 of the molar value.
Mark N for pIC50 values under 6, and Y for everything at or above.

Some entries whose results are on file:
                                   compound  discrete_label
0  CS(=O)(=O)c1ccc(-c2cc(-c3ccccn3)nc(-c3ccccn3)c2)cc1.[I][Zn][I] [Compound 2, [ZnI2L^1]]               Y
1  COc1ccc(-c2cc(-c3ccccn3)nc(-c3ccccn3)c2)cc1.[Br][Zn][Br] [Compound 3, [ZnBr2L^2]]               Y
2  COc1ccc(-c2cc(-c3ccccn3)nc(-c3ccccn3)c2)cc1.[I][Zn][I] [Compound 4, [ZnI2L^2]]               Y

Would you kindly look at the next entry?
input: Hello, I need to know if N.N.[Cl][Pt][Cl] [cisplatin, reference compound] has measured pIC50 not below 6. Thanks!
output: N
